TG (triglyceride accumulation) values for the substances below.
test system: adipocytes; test: Triglyceride accumulation assay in adipocytes; type: cell-based, human; conditions: differentiating adipocytes transfected with oligomeric compound; Table 75

Field: example entries. Status: answers known.
substance	experimental system	observed
346919 (CUACCUGCACGAACAGCACUUUG; all 2'-MOE, all phosphorothioate, methylation of C and T or U not given here) [compound 346919]	adipocytes	44 percentage of untreated control (UTC)
344269 (antisense UAACCGAUUUCAAAUGGUGCUA; all 2'-MOE, all phosphorothioate, methylation of C and T or U not given here) [compound 344269]	adipocytes	42 percentage of untreated control (UTC)

q: Supply TG (triglyceride accumulation) value. Item: 346688 (UAGUUGGCAAGUCUAGAACCA; all 2'-MOE, all phosphorothioate, methylation of C and T or U not given here) [compound 346688]
a: 33 percentage of untreated control (UTC)

----------
system: T47D cells; test: Caspase-3 activity assay (apoptosis) in T47D cells; details: T47D cells, 200 nM, 48 hours, relative to untreated control
In the oligonucleotide strings, read from the 5' end, every base follows the letter of its sugar. An asterisk marks phosphorothioate; unmarked linkages are phosphodiester. Other units and linkages are bracketed, terminal groups are in braces. A string of capitals states the bases alone. e = 2'-O-(2-methoxyethyl) (MOE); [5mC] = 5-methylcytosine; d = 2'-deoxy (DNA)
In this section, each of the substances is paired with its reported Fold Increase over UTC (caspase activity).
Field format: numeric only.

Consider the worked cases shown below.
substance	observed
328400 (antisense eA*eG*eT*eT*e[5mC]*dA*dA*dA*dA*d[5mC]*dT*d[5mC]*dA*dA*dT*e[5mC]*e[5mC]*e[5mC]*eA*eA) [compound 328400]	1.3
328648 (eA*e[5mC]*eT*eG*eA*dT*dT*d[5mC]*dA*dA*dG*dA*dG*d[5mC]*dT*eT*eT*eG*eT*eA; antisense) [compound 328648]	1.1
328420 (antisense eG*e[5mC]*eT*eG*eA*dT*dT*dA*d[5mC]*dG*dA*dA*dA*dG*dA*e[5mC]*eA*eG*eG*eA) [compound 328420]	1.0

q: GET Fold Increase over UTC (caspase activity) where system = T47D cells and item = 328391 (eA*eT*eG*eG*eT*dA*dA*dT*dT*dT*d[5mC]*dA*dT*dT*dT*e[5mC]*eA*eG*eG*e[5mC]; antisense) [compound 328391]
a: 0.8

q: Recall the reported Fold Increase over UTC (caspase activity) of 328381 (eA*e[5mC]*eA*eG*eG*dT*dG*dA*dG*d[5mC]*dG*dG*dA*dT*dG*eT*eT*e[5mC]*eT*eG; antisense) [compound 328381] when tested on T47D cells.
a: 1.1

q: Report value: Fold Increase over UTC (caspase activity), system: T47D cells, substance: 328656 (eT*eT*eT*e[5mC]*eA*dG*dG*d[5mC]*dT*d[5mC]*dA*d[5mC]*d[5mC]*dT*d[5mC]*e[5mC]*e[5mC]*e[5mC]*eA*eG; antisense) [compound 328656]
a: 1.1

q: Given 328397 (antisense eT*eT*eG*eA*eT*d[5mC]*d[5mC]*dA*dT*dA*dT*dG*d[5mC]*dA*dA*e[5mC]*eA*eA*eG*eG) [compound 328397] , report its Fold Increase over UTC (caspase activity) on T47D cells.
a: 1.2

q: Report value: Fold Increase over UTC (caspase activity), system: T47D cells, substance: 328403 (antisense eA*eG*eG*e[5mC]*e[5mC]*dT*dA*dT*dT*d[5mC]*d[5mC]*dT*dG*dT*dA*eG*e[5mC]*eA*eA*eA) [compound 328403]
a: 1.0

q: # return Fold Increase over UTC (caspase activity) for 328372 (eT*eT*eT*eG*eA*dT*dA*dG*dT*dT*dT*dA*dG*dA*d[5mC]*eA*e[5mC]*eA*eA*eA; antisense) [compound 328372] , test system: T47D cells
a: 1.0

q: Tell me its Fold Increase over UTC (caspase activity) on T47D cells: 328421 (antisense eG*e[5mC]*eT*eT*eA*dG*d[5mC]*dT*dG*dT*dG*dT*d[5mC]*dT*dT*eA*e[5mC]*eA*eG*e[5mC]) [compound 328421]
a: 1.2

q: Find the measured Fold Increase over UTC (caspase activity) of 328692 (eT*eT*eG*eT*eA*dT*dG*dG*dA*d[5mC]*dA*dT*dT*dT*dA*eA*eA*eT*e[5mC]*eA; antisense) [compound 328692] with T47D cells as test system.
a: 1.2

----------
system: T47Dp53 cells; experiment: Cell cycle assay in T47Dp53 cells; format: cell-based, human; conditions: 150 nM, 48 hours, relative to untreated control
In the oligonucleotide strings, read from the 5' end, every base follows the letter of its sugar. An asterisk marks phosphorothioate; unmarked linkages are phosphodiester. Other units and linkages are bracketed, terminal groups are in braces. A string of capitals states the bases alone. e = 2'-O-(2-methoxyethyl) (MOE); [5mC] = 5-methylcytosine; d = 2'-deoxy (DNA)
quantity: % cells in cell cycle phase G2/M
Returns: string containing the number followed by the unit.

Worked cases, answers included:
substance	experimental system	% cells in cell cycle phase G2/M
328759 (antisense eG*eA*eG*eG*eG*dA*dT*dT*dG*dT*dA*dT*dG*dA*dA*e[5mC]*eA*eT*e[5mC]*eT) [compound 328759]	T47Dp53 cells	108%
327905 (antisense e[5mC]*eA*eG*eA*e[5mC]*eT*e[5mC]*e[5mC]*eG*eG*eT*eG*eG*eA*eA*eT*eG*eA*eA*eG*eG*eA) [compound 327905]	T47Dp53 cells	104%
25691 (antisense eG*e[5mC]*e[5mC]*eA*eA*dG*dG*d[5mC]*dG*dT*dG*dA*d[5mC]*dA*dT*eG*eA*eT*eA*eT) [compound 25691]	T47Dp53 cells	93%
25690 (antisense eA*eT*e[5mC]*e[5mC]*e[5mC]*dT*dT*dT*d[5mC]*dT*dT*d[5mC]*d[5mC]*dG*d[5mC]*eA*eT*eG*eT*eG) [compound 25690]	T47Dp53 cells	114%
327902 (antisense eG*eG*e[5mC]*eT*eG*eT*e[5mC]*eA*eA*eT*eT*e[5mC]*eA*eT*eA*eG*eG*eT*e[5mC]*eA*eG) [compound 327902]	T47Dp53 cells	102%

q: Report its % cells in cell cycle phase G2/M with T47Dp53 cells as the test system: 338769 (antisense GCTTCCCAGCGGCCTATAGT; all 2'-MOE, all phosphorothioate, methylation of C not given here) [compound 338769]
a: 123%

q: Given 328403 (antisense eA*eG*eG*e[5mC]*e[5mC]*dT*dA*dT*dT*d[5mC]*d[5mC]*dT*dG*dT*dA*eG*e[5mC]*eA*eA*eA) [compound 328403] , report its % cells in cell cycle phase G2/M on T47Dp53 cells.
a: 94%

q: Recall the reported % cells in cell cycle phase G2/M of 328744 (antisense e[5mC]*eG*eG*eA*eT*d[5mC]*d[5mC]*dT*dG*dT*dT*dA*d[5mC]*d[5mC]*dT*e[5mC]*eA*e[5mC]*e[5mC]*eA) [compound 328744] when tested on T47Dp53 cells.
a: 101%

----------
tested on: A549 cells; experiment: Cell cycle assay in A549 cells; format: cell-based, human; conditions: A549 cells, 50 nM, 24 hours; relative to the untreated control cells in that phase
Reported values of % cells in cell cycle phase: G2/M for individual entries

substance	quantity	observed
340350 (antisense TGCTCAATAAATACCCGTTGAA; all 2'-MOE, all phosphorothioate, methylation of C not given here) [compound 340350]	% cells in cell cycle phase: G2/M	126%
338769 (antisense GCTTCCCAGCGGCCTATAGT; all 2'-MOE, all phosphorothioate, methylation of C not given here) [compound 338769]	% cells in cell cycle phase: G2/M	122%
338637 (antisense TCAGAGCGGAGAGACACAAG; all 2'-MOE, all phosphorothioate, methylation of C not given here) [compound 338637]	% cells in cell cycle phase: G2/M	107%

q: Look up and report measured % cells in cell cycle phase: G2/M for this entry: 338836 (antisense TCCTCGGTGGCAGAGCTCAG; all 2'-MOE, all phosphorothioate, methylation of C not given here) [compound 338836]
a: 98%

----------
Item-by-item account of % cells in cell cycle phase G2/M
system: T47D cells; assay: Cell cycle assay in T47D cells; format: cell-based, human; settings: 150 nM, 48 hours, relative to untreated control
In the oligonucleotide strings, read from the 5' end, every base follows the letter of its sugar. An asterisk marks phosphorothioate; unmarked linkages are phosphodiester. Other units and linkages are bracketed, terminal groups are in braces. A string of capitals states the bases alone. e = 2'-O-(2-methoxyethyl) (MOE); [5mC] = 5-methylcytosine; d = 2'-deoxy (DNA)
The response must be a number in % with no trailing unit.

Examples with answers:
substance	% cells in cell cycle phase G2/M (%)
327905 (antisense e[5mC]*eA*eG*eA*e[5mC]*eT*e[5mC]*e[5mC]*eG*eG*eT*eG*eG*eA*eA*eT*eG*eA*eA*eG*eG*eA) [compound 327905]	103
328759 (antisense eG*eA*eG*eG*eG*dA*dT*dT*dG*dT*dA*dT*dG*dA*dA*e[5mC]*eA*eT*e[5mC]*eT) [compound 328759]	122
328687 (eG*e[5mC]*eT*eT*e[5mC]*d[5mC]*d[5mC]*dA*dG*d[5mC]*dG*dG*d[5mC]*d[5mC]*dT*eA*eT*eA*eG*eT; antisense) [compound 328687]	115

q: Please report % cells in cell cycle phase G2/M with T47D cells for item 25690 (antisense eA*eT*e[5mC]*e[5mC]*e[5mC]*dT*dT*dT*d[5mC]*dT*dT*d[5mC]*d[5mC]*dG*d[5mC]*eA*eT*eG*eT*eG) [compound 25690] .
a: 113

q: Recall the reported % cells in cell cycle phase G2/M of 328403 (antisense eA*eG*eG*e[5mC]*e[5mC]*dT*dA*dT*dT*d[5mC]*d[5mC]*dT*dG*dT*dA*eG*e[5mC]*eA*eA*eA) [compound 328403] on T47D cells and write it down.
a: 89

q: # return % cells in cell cycle phase G2/M for 328744 (antisense e[5mC]*eG*eG*eA*eT*d[5mC]*d[5mC]*dT*dG*dT*dT*dA*d[5mC]*d[5mC]*dT*e[5mC]*eA*e[5mC]*e[5mC]*eA) [compound 328744] , test system: T47D cells
a: 118

q: Jot down % cells in cell cycle phase G2/M (T47D cells) of 327902 (antisense eG*eG*e[5mC]*eT*eG*eT*e[5mC]*eA*eA*eT*eT*e[5mC]*eA*eT*eA*eG*eG*eT*e[5mC]*eA*eG) [compound 327902] .
a: 116

q: Report % cells in cell cycle phase G2/M under test system T47D cells for 25691 (antisense eG*e[5mC]*e[5mC]*eA*eA*dG*dG*d[5mC]*dG*dT*dG*dA*d[5mC]*dA*dT*eG*eA*eT*eA*eT) [compound 25691] .
a: 104
